These data points were gathered from patent US6479554B2.

Listed below: melting point values for each entry.

Here is how some molecules turned out for melting point.
MOLECULE	melting point
COc1ccc(C(=CC#N)c2ccc3ccccc3c2)cc1OC [Example 20]	121 to 123 °C
COc1ccc(C(=O)c2ccc(N)cc2)cc1OC [Example 16, 3,4-Dimethoxy-4′-aminobenzophenone]	189 to 191 °C
COc1ccc(C(=CC#N)c2ccncc2)cc1OC [Example 22]	116 to 125 °C
COc1ccc(C(=CC#N)c2ccc([N+](=O)[O-])cc2)cc1OC [Example 14]	117.5 to 120 °C

Req: Entry COc1ccc(C(=CC#N)c2ccccn2)cc1OC [Example 23] has what melting point?
Resp: 134.5 to 135.5 °C

====

Below, each entry is listed with its recorded melting point.

// worked examples, melting point included
CC=C(c1ccccc1)c1ccc(OC)c(OC)c1 72 to 73 °C
COc1ccc(C(=CC#N)c2ccc(F)cc2)cc1OC 100 to 102 °C
COc1ccc(C(=O)c2cccc(N)c2)cc1OC 157 to 175 °C

Req: Endpoint output: melting point of COc1ccc(C(=CC#N)c2ccc(-c3ccccc3)cc2)cc1OC . Value?
Resp: 132 to 134 °C

====

# key: entry, value: melting point

Would you please look over these solved cases?
COc1cc(OC)cc(C(=CC#N)c2ccc(OC)c(OC)c2)c1 88 to 90 °C
CCc1ccc(C(=CC#N)c2ccc(OC)c(OC)c2)cc1CC 78 to 82 °C
CC=C(c1ccc(OC)c(OC)c1)c1ccc(OC)c(OCC)c1 65.5 to 68 °C
COc1ccc(C(=CC#N)c2ccco2)cc1OC 78 to 82 °C
COc1ccc(C(=CC#N)c2ccc(C)cc2)cc1OC 83.5 to 86.5 °C

Turning to the following molecule.
Req: melting point lookup needed for COc1ccc(C(=O)c2c(OC)cccc2OC)cc1OC , thanks.
Resp: 128 to 129 °C

====

MEASUREMENT KIND: melting point

Field: example entries. Status: answers known.
CCOc1cc(C(=CC#N)c2ccccc2)ccc1OC 74 to 77 °C
COc1ccc(C(=CC#N)c2ccc3c(c2)OCO3)cc1OC 121 to 123 °C

# input for lookup
Req: Field request: melting point | item: COc1ccc(C(=CC#N)c2cccc([N+](=O)[O-])c2)cc1OC
Resp: 117.5 to 120 °C
